solubility at 1 h values by entry
Test: Solubility of C8-P and C14-P in CD solution, shaken one hour (Example 2)
Assay type: physicochemical
Details: aqueous β-cd solution, β-CD 10^-4 Mol/l
Method: Powdery lankacidin C was added to an aqueous solution of cyclodextrin (hereinafter referred to as "CD") to have 4 mg/ml of the lankacidin C contained. After the mixture was stirred with a mixer, it was shaken at 5° C. for 2 hours, and passed through filter paper. The absorbancy of the filtrate was measured at 227-229 nm to determine concentration of the lankacidin C. […]
quantityName: solubility at 1 h (µg/mL)

molecule	quantityName	unitsOfMeasure	dataValue
CCC(=O)OC1C=CC(C)=CC(NC(=O)C(C)=O)C2(C)C(=O)OC(CC(O)C=CC(C)=CC1)C(C)C2=O (centres unmarked) [C8-P, lankacidin C 8-propionate]	solubility at 1 h	µg/mL	46
CCC(=O)OC1C=CC(C)=CCC(O)C=CC(C)=CC(NC(=O)C(C)=O)C2(C)C(=O)OC(C1)C(C)C2=O (centres unmarked) [C14-P, lankacidin C 14-propionate]	solubility at 1 h	µg/mL	21

====

test: Stability of lankacidin A and C in methanolic aqueous solutions, 40° C., HPLC (Example 7); format: physicochemical; conditions: methanolic buffer with β-cyclodextrin; 10 μg/ml; pH 7.0; β-cyclodextrin 10 mg/ml; 6 hr; 40° C.; read-out: Residual rate
quantityName: remaining at 6 h (%)

In [3]: df
Out[3]:
                                   molecule  datavalue
0  CC(=O)OC1C=CC(C)=CCC(O)C=CC(C)=CC(NC(=O)C(C)=O)C2(C)C(=O)OC(C1)C(C)C2=O (centres unmarked) [Lankacidin A, lankacidin A]       48.1
1  CC(=O)C(=O)NC1C=C(C)C=CC(O)CC=C(C)C=CC(O)CC2OC(=O)C1(C)C(=O)C2C (centres unmarked) [Lankacidin C, lankacidin C]       88.2

====

test: Stability of lankacidin A and C in methanolic aqueous solutions, 40° C., HPLC (Example 7); assay type: physicochemical; details: methanolic buffer with β-cyclodextrin; 10 μg/ml; pH 7.0; β-cyclodextrin 10 mg/ml; 4 hr; 40° C.; read-out: Residual rate
quantityName: remaining at 4 h (%)

In [3]: df
Out[3]:
                                   molecule      quantityname  unitsofmeasure  datavalue
0  CC(=O)OC1C=CC(C)=CCC(O)C=CC(C)=CC(NC(=O)C(C)=O)C2(C)C(=O)OC(C1)C(C)C2=O (stereo not shown) [Lankacidin A, lankacidin A]  remaining at 4 h               %       58.3

====

experiment: Stability of lankacidin A and C in methanolic aqueous solutions, 40° C., HPLC (Example 7); type: physicochemical; conditions: methanolic aqueous buffer; 10 μg/ml; pH 7.0; no β-cyclodextrin; 6 hr; 40° C.; read-out: Residual rate
quantityName: remaining at 6 h (%)

In [3]: df
Out[3]:
                                   molecule  unitsofmeasure  datavalue
0  CC(=O)C(=O)NC1C=C(C)C=CC(O)CC=C(C)C=CC(O)CC2OC(=O)C1(C)C(=O)C2C (stereo not shown) [Lankacidin C, lankacidin C]               %       43.7

====

Below, each of the compounds is paired with its reported solubility at 1 h value.
assay: Solubility of C8-P and C14-P in CD solution, shaken one hour (Example 2); format: physicochemical; settings: aqueous γ-cd solution, γ-CD 10^-4 Mol/l
quantityName: solubility at 1 h (µg/mL)

compound	unitsOfMeasure	dataValue
CCC(=O)OC1C=CC(C)=CCC(O)C=CC(C)=CC(NC(=O)C(C)=O)C2(C)C(=O)OC(C1)C(C)C2=O (centres unmarked) [C14-P, lankacidin C 14-propionate]	µg/mL	35
CCC(=O)OC1C=CC(C)=CC(NC(=O)C(C)=O)C2(C)C(=O)OC(CC(O)C=CC(C)=CC1)C(C)C2=O (centres unmarked) [C8-P, lankacidin C 8-propionate]	µg/mL	54

====

assay: Solubility of C8-P and C14-P in CD solution, shaken one hour (Example 2); format: physicochemical; details: aqueous γ-cd solution, γ-CD 10^-2 Mol/l
quantityName: solubility at 1 h (µg/mL)

compound	dataValue
CCC(=O)OC1C=CC(C)=CC(NC(=O)C(C)=O)C2(C)C(=O)OC(CC(O)C=CC(C)=CC1)C(C)C2=O (centres unmarked) [C8-P, lankacidin C 8-propionate]	1610
CCC(=O)OC1C=CC(C)=CCC(O)C=CC(C)=CC(NC(=O)C(C)=O)C2(C)C(=O)OC(C1)C(C)C2=O (centres unmarked) [C14-P, lankacidin C 14-propionate]	273

====

assay: Solubility of lankacidin C in aqueous cyclodextrin solution, shaken at 5° C. for 2 hours (Example 1); assay type: physicochemical; conditions: water, β-CD, CD 0 Mol/l
quantityName: solubility at 2 h (µg/mL)

>>> df
                                   molecule  datavalue
0  CC(=O)C(=O)NC1C=C(C)C=CC(O)CC=C(C)C=CC(O)CC2OC(=O)C1(C)C(=O)C2C (stereo not shown) [Lankacidin C, lankacidin C]        260

====

Reported solubility at 16 h values follow for various molecules
assay: Solubility in β-CD solution, shaken 16 hours (Example 3); format: physicochemical; conditions: aqueous β-cd solution, β-CD 10^-3 Mol/l
quantityName: solubility at 16 h (mg/mL)

>>> df
                                   molecule  datavalue
0  CC1=CCC(O)C=CC(C)=CC(NC(=O)C(C)O)C2(C)C(=O)OC(CC(O)C=C1)C(C)C2=O (stereo not drawn) [Lankacidinol, lankacidinol]      0.914
1  CC(=O)C(=O)NC1C=C(C)C=CC(O)CC=C(C)C=CC(O)CC2OC(=O)C1(C)C(=O)C2C (stereo not drawn) [Lankacidin C, lankacidin C]      0.566
2  CC(=O)OC1C=CC(C)=CCC(O)C=CC(C)=CC(NC(=O)C(C)=O)C2(C)C(=O)OC(C1)C(C)C2=O (stereo not drawn) [Lankacidin A, lankacidin A]        0.4

====

test: Solubility of lankacidin C in aqueous cyclodextrin solution, shaken at 5° C. for 2 hours (Example 1); assay type: physicochemical; conditions: aqueous β-cd solution, β-CD 10^-3 Mol/l
quantityName: solubility at 2 h (µg/mL)

In [3]: df
Out[3]:
                                   compound  datavalue
0  CC(=O)C(=O)NC1C=C(C)C=CC(O)CC=C(C)C=CC(O)CC2OC(=O)C1(C)C(=O)C2C (stereo not shown)        650
